testSystem: P-gp (P-glycoprotein, MDR1) (Homo sapiens (Human), UniProt P08183)
Sequence (P08183 whole entry): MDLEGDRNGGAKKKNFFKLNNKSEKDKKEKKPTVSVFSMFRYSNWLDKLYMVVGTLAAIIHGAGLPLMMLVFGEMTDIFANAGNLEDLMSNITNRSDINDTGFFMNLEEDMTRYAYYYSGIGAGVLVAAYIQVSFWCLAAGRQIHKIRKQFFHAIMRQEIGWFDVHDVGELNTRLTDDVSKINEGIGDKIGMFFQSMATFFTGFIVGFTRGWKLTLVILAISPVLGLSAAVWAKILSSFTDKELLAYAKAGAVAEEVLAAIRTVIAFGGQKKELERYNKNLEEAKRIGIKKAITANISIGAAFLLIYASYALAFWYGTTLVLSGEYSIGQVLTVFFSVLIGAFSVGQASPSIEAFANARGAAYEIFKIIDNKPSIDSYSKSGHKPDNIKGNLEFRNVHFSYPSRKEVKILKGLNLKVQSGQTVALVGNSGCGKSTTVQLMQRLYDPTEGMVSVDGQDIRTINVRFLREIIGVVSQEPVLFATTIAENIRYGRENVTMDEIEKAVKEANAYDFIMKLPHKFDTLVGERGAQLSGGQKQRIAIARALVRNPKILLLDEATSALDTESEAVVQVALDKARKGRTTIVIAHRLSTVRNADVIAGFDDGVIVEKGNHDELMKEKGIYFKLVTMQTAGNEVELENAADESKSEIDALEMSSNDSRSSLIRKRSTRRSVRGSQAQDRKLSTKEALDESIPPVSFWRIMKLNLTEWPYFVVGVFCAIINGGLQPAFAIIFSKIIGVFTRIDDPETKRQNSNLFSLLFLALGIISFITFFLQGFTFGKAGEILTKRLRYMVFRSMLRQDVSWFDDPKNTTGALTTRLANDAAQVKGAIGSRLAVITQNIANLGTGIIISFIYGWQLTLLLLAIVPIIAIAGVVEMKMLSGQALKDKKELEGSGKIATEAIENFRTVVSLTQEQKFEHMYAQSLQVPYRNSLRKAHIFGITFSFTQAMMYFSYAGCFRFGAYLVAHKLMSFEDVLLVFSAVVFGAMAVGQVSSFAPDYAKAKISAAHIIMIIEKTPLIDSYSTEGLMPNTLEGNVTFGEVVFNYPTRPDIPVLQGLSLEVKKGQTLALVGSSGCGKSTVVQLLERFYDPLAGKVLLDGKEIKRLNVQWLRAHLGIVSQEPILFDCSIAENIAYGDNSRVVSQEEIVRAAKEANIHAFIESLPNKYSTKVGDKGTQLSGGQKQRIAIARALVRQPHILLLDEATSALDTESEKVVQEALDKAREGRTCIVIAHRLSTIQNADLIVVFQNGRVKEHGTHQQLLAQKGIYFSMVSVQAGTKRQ
protocolDescription: MDCKII-MDR1 permeability, efflux ratio
Format: in vitro ADME
conditionsUsed: dog, MDCK-MDR1, pH 7.4, MDCKII-MDR1 cells, read-out: ER MDR1
Please go through the items and note down their efflux ratio at 90 min, 3 μM.

input: Quick check: efflux ratio at 90 min, 3 μM of "CN1C(=O)[C@@H](NC(=O)c2cc(C3(c4ccccc4)CC3)on2)COc2cccnc21" ?
output: 0.6

input: Quick check: efflux ratio at 90 min, 3 μM of "CN1C(=O)[C@@H](NC(=O)c2nnc(C3(c4ccccc4)CC3)o2)COc2cccnc21" ?
output: 1.6

input: Quick check: efflux ratio at 90 min, 3 μM of "C[C@H]1Oc2cccnc2N(C)C(=O)[C@H]1NC(=O)c1nnc(Cc2ccccc2)o1" ?
output: 1.1

input: Quick check: efflux ratio at 90 min, 3 μM of "CN1C(=O)[C@@H](NC(=O)c2nnc(Cc3ccccc3)[nH]2)COc2cccnc21" ?
output: 19

input: Quick check: efflux ratio at 90 min, 3 μM of CN1C(=O)[C@@H](NC(=O)c2nnc(Cc3ccccc3)o2)COc2ccccc21 [B, reference compound] ?
output: 1

====

testSystem: P-gp (P-glycoprotein, MDR1) (Homo sapiens (Human), UniProt P08183)
protocolDescription: MDCKII-MDR1 permeability, efflux ratio
Format: in vitro ADME
conditionsUsed: dog, MDCK-MDR1, pH 7.4, MDCKII-MDR1 cells, read-out: ER MDR1
measuredParameter: efflux ratio at 90 min, 3 μM
Reply: number alone, nothing else.

input: Quick check: efflux ratio at 90 min, 3 μM of "C[C@H]1Oc2cccnc2N(C)C(=O)[C@H]1NC(=O)c1nnc(Cc2ccccc2)[nH]1" ?
output: 14

input: Quick check: efflux ratio at 90 min, 3 μM of "CN1C(=O)[C@@H](NC(=O)c2nnc(Cc3ccccc3)o2)COc2cccnc21" ?
output: 1

input: Quick check: efflux ratio at 90 min, 3 μM of O=C(N[C@@H]1C(=O)Nc2c(F)cc(F)cc2[C@@H]2C[C@H]12)c1nnc(Cc2ccccc2)[nH]1 [Example 83A] ?
output: 29

input: Quick check: efflux ratio at 90 min, 3 μM of "C[C@H]1Oc2cccnc2N(C)C(=O)[C@H]1NC(=O)c1nn(Cc2ccccc2)cc1F" ?
output: 1.4

input: Quick check: efflux ratio at 90 min, 3 μM of CN1C(=O)[C@@H](NC(=O)c2nnc(Cc3ccccc3)[nH]2)COc2ccccc21 [A, reference compound] ?
output: 6.4

input: Quick check: efflux ratio at 90 min, 3 μM of "CN1C(=O)[C@@H](NC(=O)c2cc(C3(c4ccccc4)CC3)on2)COc2ccccc21" ?
output: 0.8

input: Quick check: efflux ratio at 90 min, 3 μM of CN1C(=O)[C@@H](NC(=O)c2cc(Cc3ccccc3)on2)COc2ccccc21 [C, reference compound] ?
output: 0.9

input: Quick check: efflux ratio at 90 min, 3 μM of CN1C(=O)[C@@H](NC(=O)c2nnc(Cc3ccccc3)[nH]2)[C@H]2C[C@H]2c2cccnc21 [Example 75A] ?
output: 24

====

testSystem: GST-hRIPK1 (8-327) (Homo sapiens (Human), UniProt Q13546)
Sequence (Q13546 8-327): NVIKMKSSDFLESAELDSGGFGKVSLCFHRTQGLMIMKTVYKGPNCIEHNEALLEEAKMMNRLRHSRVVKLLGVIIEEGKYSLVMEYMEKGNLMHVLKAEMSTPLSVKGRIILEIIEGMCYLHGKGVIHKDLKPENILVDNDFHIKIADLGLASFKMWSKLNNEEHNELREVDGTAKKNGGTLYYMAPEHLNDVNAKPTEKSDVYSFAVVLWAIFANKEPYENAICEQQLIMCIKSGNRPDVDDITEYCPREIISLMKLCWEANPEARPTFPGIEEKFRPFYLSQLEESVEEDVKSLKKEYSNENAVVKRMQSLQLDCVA
protocolDescription: Fluorescent Polarization Binding (FP Binding) assay
conditionsUsed: 10 nM GST-hRIPK1 (8-327), 5 nM fluorescent labeled ligand; read-out: FP IC50
Description: Fluorescent Polarization Binding (FP Binding) assay (Berger S. B. et al. […] Maki J. L. et al. […] Test Compounds were serially diluted in DMSO at 100 fold final concentrations in the assay (1% DMSO final). […] For negative control the enzyme addition was replaced by assay buffer only. After addition of 5 μL of fluorescent labeled ligand at twice the final concentrations in assay buffer, the plate was incubated at RT for 30 min.
Please go through the items and note down their IC50.

input: Quick check: IC50 of "CN1C(=O)[C@@H](NC(=O)c2nnc(Cc3ccccc3)[nH]2)[C@H]2C[C@H]2c2cc(C#N)cnc21" ?
output: 0.1 to 1000 nM

input: Quick check: IC50 of "CN1C(=O)[C@@H](NC(=O)c2cc(Cc3ccccc3)on2)[C@H]2C[C@H]2c2ccccc21" ?
output: 0.1 to 1000 nM

input: Quick check: IC50 of CN1C(=O)[C@H](NC(=O)c2nnc(Cc3ccccc3)[nH]2)C[C@H](F)c2ccccc21 (mixture of isomers) [Example 11B] ?
output: 1000 to 10000 nM

input: Quick check: IC50 of "CN1C(=O)[C@@H](NC(=O)c2ncc(C(F)(F)c3ccccc3)o2)[C@H]2C[C@H]2c2nccnc21" ?
output: 0.1 to 1000 nM

input: Quick check: IC50 of O=C(N[C@H]1COc2ccccc2-n2ccnc21)c1cc(Cc2ccccc2)on1 [Example 70A] ?
output: 0.1 to 1000 nM

input: Quick check: IC50 of CN1C(=O)[C@H](NC(=O)c2cc(Cc3ccccc3)on2)[C@@H]2C[C@@H]2c2cccnc21 [Example 81B] ?
output: > 3000 nM

input: Quick check: IC50 of O=C(N[C@@H]1CCc2ccccc2-n2cnnc21)c1cc(Cc2ccccc2)on1 [Example 71B] ?
output: > 3000 nM

input: Quick check: IC50 of "CN1C(=O)[C@@H](NC(=O)c2nn(Cc3ccccc3)cc2F)COc2ccccc21" ?
output: 0.1 to 1000 nM

input: Quick check: IC50 of "CN1C(=O)[C@@H](NC(=O)c2ncc(Cc3ccccn3)s2)COc2cccnc21" ?
output: 0.1 to 1000 nM

input: Quick check: IC50 of O=C(N[C@@H]1COc2ccccc2-n2ccnc21)c1cc(Cc2ccccc2)on1 [Example 70B] ?
output: > 3000 nM

input: Quick check: IC50 of O=C(N[C@@H]1CCc2ccccc2-n2cnnc21)c1nnc(Cc2ccccc2)[nH]1 [Example 69B] ?
output: > 3000 nM

input: Quick check: IC50 of CN1C(=O)[C@@H](NC(=O)c2cc(Cc3ccccc3)[nH]n2)[C@H]2C[C@H]2c2cccnc21 [Example 80A] ?
output: 0.1 to 1000 nM

input: Quick check: IC50 of CN1C(=O)[C@H](NC(=O)c2cc(Cc3ccccc3)[nH]n2)[C@@H]2C[C@@H]2c2ccccc21 [Example 60B] ?
output: > 3000 nM

input: Quick check: IC50 of CN1C(=O)[C@@H](NC(=O)c2nn(Cc3ccccc3)cc2F)[C@H]2C[C@H]2c2cccnc21 [Example 82A] ?
output: 0.1 to 1000 nM

input: Quick check: IC50 of "CN1C(=O)[C@@H](NC(=O)c2ncc(C3(c4ccccc4)CC3)s2)COc2cccnc21" ?
output: 0.1 to 1000 nM

Every entry's value here was drawn from patent US9815850B2.
